Target: T1, recombinant human BAFF-Fc (Sino Biological) (human, UniProt Q9Y275 134-285)
T1 construct: Bought reagent; also called hBAFF; not shown: Fc moiety detected by anti-human Fc
T1 sequence (Q9Y275 134-285): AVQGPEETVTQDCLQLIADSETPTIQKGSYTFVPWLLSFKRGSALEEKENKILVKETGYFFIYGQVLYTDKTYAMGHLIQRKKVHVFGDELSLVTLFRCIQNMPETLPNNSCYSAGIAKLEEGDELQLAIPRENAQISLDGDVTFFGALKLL
Experiment: blocking ELISA, binding of BAFF-Fc to coated BR3 (BAFF-R); repeats Table 2
pIC50: −log10 of the molar value.

{"Binder": "ID2-101B10 (VNAR, Nurse shark VNAR single domain, monomer) VNAR: AARVDQTPQTITKETGESLTINCVLRDSNCALSSTYWYRKKSGSTNEESISKGGRYVETVNSGSKSFSLRINDLTVEDSGTYRCKVRIDPLLCNASYVKWDDVYGGGTVVTVNA", "pIC50": 8.55}
{"Binder": "ID2-101A09 (VNAR, Nurse shark VNAR single domain, monomer) VNAR: AARVDQTPQTITKETGESLTINCVLRDNNCALSTTYWYRKKSGSTNEESISKGGRYVETVNSGSKSFSLRINDLTVEDSGTYRCKVREDPLMCRYYLDRYRDVYGGGTVVTVNA", "pIC50": 8.01}
{"Binder": "ID2-101A07 (VNAR, Nurse shark VNAR single domain, tested as monomer) VNAR: AARVDQTPQTITKETGESLTINCVLRDSNCALSNLYWYRKKSGSTNEESISLGGRYVETVNSGSKSFSLRINDLTVEDSGTYRCKVQLPYDPLTKECILGRMDVYGDGTAVTVNA", "pIC50": 8.17}
{"Binder": "ID2-101A05 (VNAR, Nurse shark VNAR single domain, tested as monomer) VNAR: AARVDQTPQTITKETGESLTINCVLRDNNCALSTTYWYRKKSGSTNEENISKGGRYVETVNSGSKSFSLRINDLTVEDSGTYRCKVSKDWLLCRDRGRRETDVYGDGTAVTVNA", "pIC50": 7.86}
{"Binder": "ID2-101B07 (VNAR, Nurse shark VNAR single domain, monomer) VNAR: AARVDQTPRSVTKETGESLTINCVLRDSICALSSTHWYRKKSGSTNEESISKGGRYVETVNSGSKSFSLRINDLTVEDSGTYRCKVHGGRSTGLCGDVLLAGDVYGGGTAVTVNA", "pIC50": 8.17}
